target: eIF2Bα (Homo sapiens, UniProt Q14232); construct: made in house; host or cells: E. coli BL21(DE3); assay: MIDAS (mass spectrometry integrated with equilibrium dialysis) metabolite binding screen; settings: MIDAS screen, sheet eIF2Ba; metabolites screened in pools 1-4; p-value and q-value given
Sequence (Q14232 whole entry): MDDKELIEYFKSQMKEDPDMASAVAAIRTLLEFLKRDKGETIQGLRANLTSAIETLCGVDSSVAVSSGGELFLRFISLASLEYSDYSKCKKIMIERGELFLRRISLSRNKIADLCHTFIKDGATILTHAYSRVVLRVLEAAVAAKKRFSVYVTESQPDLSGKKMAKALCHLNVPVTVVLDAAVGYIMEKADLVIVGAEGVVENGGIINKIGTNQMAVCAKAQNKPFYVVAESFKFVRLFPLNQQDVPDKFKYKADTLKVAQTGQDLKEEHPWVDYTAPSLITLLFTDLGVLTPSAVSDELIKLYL
# reported log2(corrected fold change); entries follow

# molecule, log2(corrected fold change)
rows = [
    ("N[C@@H](Cc1c[nH]cn1)C(=O)O", 0.05971),
    ("Nc1nc2c(ncn2[C@H]2C[C@H](O)[C@@H](COP(=O)(O)O)O2)c(=O)[nH]1 [Deoxyguanylate]", 0.08261),
    ("O=P(O)(O)OC[C@H]1OC(O)[C@@H](O)[C@@H](O)[C@@H]1O (stereo partly drawn) [D-Mannose 6-phosphate]", -0.1344),
    ("N[C@H](CCSSCC[C@@H](N)C(=O)O)C(=O)O (racemic)", 0.09463),
    ("Nc1ccccc1C(=O)C[C@H](N)C(=O)O", 0.1418),
    ("C[N+](C)(C)CCOP(=O)(O)O", -0.0156),
    ("C[N+](C)(C)CC=O [Betaine aldehyde hydrate]", -0.08887),
    ("O=C(O)Cc1cc(O)ccc1O", -0.08584),
    ("CC(=O)NCCc1c[nH]c2ccc(O)cc12 [N-Acetyl-5-hydroxytryptamine]", 0.03423),
    ("O=C(O)C[C@H](Nc1ncnc2c1ncn2[C@@H]1O[C@H](COP(=O)(O)O)[C@@H](O)[C@H]1O)C(=O)O", -0.03472),
    ("O=c1ccn([C@H]2C[C@H](O)[C@@H](COP(=O)(O)O)O2)c(=O)[nH]1 [2-Deoxyuridine 5-monophosphate]", 0.2736),
    ("O=C(CO)[C@@H](O)[C@@H](O)[C@H](O)COP(=O)(O)O [D-Tagatose 6-phosphate]", -0.01162),
    ("Nc1nc2c(ncn2[C@@H]2O[C@H](COP(=O)(O)O)[C@@H](O)[C@H]2O)c(=O)[nH]1 [Guanosine 5-monophosphate]", 1.415),
    ("Nc1nc2nc[nH]c2c(=O)[nH]1", 0.2851),
    ("O=P(O)(O)O[C@@H]1[C@H](O)[C@H](O)[C@@H](OP(=O)(O)O)[C@H](OP(=O)(O)O)[C@H]1O [D-myo-Inositol-1,4,5-triphosphate]", 0.2026),
    ("NC(N)=NCC(=O)O", 0.1469),
    ("Cc1ncc(C[n+]2csc(CCOP(=O)(O)O)c2C)c(N)n1 [Thiamine monophosphate]", 0.1425),
    ("CC(C)C(=O)NCC(=O)O", -0.09012),
    ("O=P(O)(O)O[C@H]1O[C@H](CO)[C@@H](O)[C@H](O)[C@H]1O [D-Glucose 1-phosphate]", -0.1344),
    ("CSCCC(=O)C(=O)O", 0.0884),
]
